System: RPMI-8226 leukemia
Assay: NCI tumour cell line growth inhibition, 48 h; in the data active = GI50 below about 0.43 µM; inactive = the rest
Write down the outcome that applies. Available outcomes: t = active, f = inactive

MOLECULE	TARGET_SYSTEM	CLASS_LABEL
CCCCCCCCCCCCC(O)[C@H]1CC[C@H](C(O)CCCCCC(=O)CCCCC2CC(C(C)=O)C(=O)O2)O1 (some centres undefined)	RPMI-8226 leukemia	f
CN(C)c1ccc(/C=C/c2cc[n+](C)c(/C=C/c3ccc(N(C)C)cc3)c2)cc1	RPMI-8226 leukemia	t
O=c1c(-c2ccccc2)coc2cc(OC/C(=N/O)c3ccccc3)ccc12	RPMI-8226 leukemia	f
Cn1cc(-c2ccc(-c3ccc(C4=NC5(CC5)C(=O)N4C[C@@H]4CCN(C(=O)C5CC5)C4)cc3)cc2)cn1	RPMI-8226 leukemia	t

Turning to the following molecule.
State the result this test recorded for C=C1CC2(OC1=O)C(=O)Nc1ccccc12 (centres undefined) .
f
